target: Tubulin (Bos taurus) (UniProt Q6B856+Q862L2+Q862F3); experiment: Tested for its capability of competing with colchicine for binding to tubulin.; assay type: protein assay; parameters: concentration or dose not given beside the values; conditions: concentration not given here
PROPERTY: inhibition (%)
Give the number; % is assumed, so skip it.

Worked examples follow.
> print(dat)
                               molecule                                    target  measured.result
1  COc1ccc(-c2[nH]c3cc(OC)ccc3c2C=O)cc1  Tubulin (Bos taurus) (UniProt Q6B856+Q862L2+Q862F3)               23
2     COc1ccc(-c2sc3cc(OC)ccc3c2C=O)cc1  Tubulin (Bos taurus) (UniProt Q6B856+Q862L2+Q862F3)               56
3  COc1ccc(-c2c(C=O)c3ccc(OC)cc3n2C)cc1  Tubulin (Bos taurus) (UniProt Q6B856+Q862L2+Q862F3)               30

Kindly review the next molecule as well.
Given the entry CCCC1Cc2cc(O)ccc2-c2c(C=O)c3ccc(O)cc3n21 (stereo not given) , report its measured inhibition.
40
